Molecular target: T1, EsCas13d, nuclease-dead (Eubacterium siraeum, UniProt B0MS50, R295A;H300A;R849A;H854A)
T1 sequence: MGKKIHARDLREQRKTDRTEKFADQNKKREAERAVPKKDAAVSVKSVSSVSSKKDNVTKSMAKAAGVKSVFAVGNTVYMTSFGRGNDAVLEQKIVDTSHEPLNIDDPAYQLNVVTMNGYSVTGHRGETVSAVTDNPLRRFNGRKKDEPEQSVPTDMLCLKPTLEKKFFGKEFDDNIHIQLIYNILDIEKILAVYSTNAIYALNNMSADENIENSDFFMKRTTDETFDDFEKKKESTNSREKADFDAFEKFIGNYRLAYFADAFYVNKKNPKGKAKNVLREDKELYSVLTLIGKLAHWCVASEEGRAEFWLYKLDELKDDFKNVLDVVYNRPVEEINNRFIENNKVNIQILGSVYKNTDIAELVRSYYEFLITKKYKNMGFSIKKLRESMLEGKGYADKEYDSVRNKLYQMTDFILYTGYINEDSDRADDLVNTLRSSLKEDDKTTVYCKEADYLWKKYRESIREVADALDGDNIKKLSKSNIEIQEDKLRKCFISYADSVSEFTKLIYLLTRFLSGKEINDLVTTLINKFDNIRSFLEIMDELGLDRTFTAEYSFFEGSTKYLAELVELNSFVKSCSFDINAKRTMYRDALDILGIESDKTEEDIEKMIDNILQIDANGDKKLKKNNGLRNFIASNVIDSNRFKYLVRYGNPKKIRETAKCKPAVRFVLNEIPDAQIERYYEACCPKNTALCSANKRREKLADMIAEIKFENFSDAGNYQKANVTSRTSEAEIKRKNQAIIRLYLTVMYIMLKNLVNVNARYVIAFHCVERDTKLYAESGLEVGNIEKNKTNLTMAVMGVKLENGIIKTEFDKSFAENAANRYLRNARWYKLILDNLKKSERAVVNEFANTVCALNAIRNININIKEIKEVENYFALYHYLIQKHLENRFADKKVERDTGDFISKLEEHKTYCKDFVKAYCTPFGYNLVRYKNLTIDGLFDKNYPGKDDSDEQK
Assay: crRNA (strand 1, pre-loaded); Mg2+; 40 mM Tris-HCl pH 7.5, 150 mM NaCl, 6 mM MgCl2, 1 mM DTT, 0.1% Tween-20, 0.2 mg/ml BSA; 25 C; 10 min per concentration, then washed
Conditions: tags: His6-TwinStrep-SUMO cleaved; N-terminal SNAP kept (SNAP-Surface 488); label: 3' end held by stalled T7 RNA polymerase
TEST READOUT: Kd
Entry format: amount then unit.

BINDER	RESULT
target 1 C6G,G13U (mixed) RNA 1: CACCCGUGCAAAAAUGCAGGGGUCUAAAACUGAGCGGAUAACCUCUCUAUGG RNA 2: GGGAAUGGAUCCACAUCUACGAAUUCGUACCAUAGAGAUGUUAUCGGCUCACCGAGAUCGGAAGAGCACACGU	37 nM

Please turn your attention to the following entry.
Using the record for target 1 insG 3' of 19,insG 3' of 14 (mixed) RNA 1: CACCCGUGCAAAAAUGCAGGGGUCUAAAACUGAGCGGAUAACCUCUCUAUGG RNA 2: GGGAAUGGAUCCACAUCUACGAAUUCGUACCAUGAGAGAGGGUUAUCCGCUCACCGAGAUCGGAAGAGCACACGU , report its Kd.
75 nM
